# SUBJECT_OF_TEST: human CB2R (Homo sapiens)
# Construct: host or cells: CHO cells
# EXPERIMENTAL_PROTOCOL: CB2R mediated modulation of cAMP synthesis
# Assay type: cell-based
# RECORDED_CONDITIONS: found through the use of the described assays (CB2 agonists); qualitative statement
OUTCOME_MEASURE: agonistic activity

Worked cases, agonistic activity given:
So what does the record say about agonistic activity for O=C(Nc1cc(C(F)(F)F)ccn1)N1CCCN(C(=O)C2CCOCC2)CC1 ?
agonistic activity

So what does the record say about agonistic activity for O=C(Nc1ccc(C(F)(F)F)cc1)N1CCCN(C(=O)C2CCCCC2)CC1 ?
agonistic activity

So what does the record say about agonistic activity for CC(C)c1ccc(NC(=O)N2CCCN(C(=O)CC3CCCC3)CC2)cc1 ?
agonistic activity

So what does the record say about agonistic activity for O=C(Nc1ccc2ccccc2c1)N1CCCN(C(=O)c2ccc(C(F)(F)F)cc2)CC1 ?
agonistic activity

Would you kindly look at the next entry?
So what does the record say about agonistic activity for CC(C)(C)C(=O)N1CCCN(C(=O)Nc2ccc3ccccc3c2)CC1 ?
agonistic activity

====

# SUBJECT_OF_TEST: human CB2R (Homo sapiens, UniProt P34972)
# Construct: host or cells: CHO cells
# Sequence (P34972 whole entry): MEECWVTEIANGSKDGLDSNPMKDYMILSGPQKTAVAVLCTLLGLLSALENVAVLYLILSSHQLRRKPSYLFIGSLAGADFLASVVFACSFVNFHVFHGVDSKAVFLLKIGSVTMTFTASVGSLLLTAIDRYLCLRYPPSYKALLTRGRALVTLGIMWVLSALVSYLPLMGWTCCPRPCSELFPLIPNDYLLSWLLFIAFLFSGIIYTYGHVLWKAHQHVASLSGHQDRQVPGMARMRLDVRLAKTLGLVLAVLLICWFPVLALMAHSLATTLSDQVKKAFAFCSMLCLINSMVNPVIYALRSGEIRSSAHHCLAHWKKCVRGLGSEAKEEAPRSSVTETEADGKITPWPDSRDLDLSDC
# EXPERIMENTAL_PROTOCOL: CB2R mediated modulation of cAMP synthesis
# Type: cell-based
# RECORDED_CONDITIONS: read-out: hCB2 cAMP EC50
# EC50 values compiled below
Give the value in nM but do not write nM after it.

So what does the record say about EC50 for CC(C)(C)c1ccc(NC(=O)N2CCCN(C(=O)CCC3CCCCC3)CC2)cc1 ?
21

***
So what does the record say about EC50 for CC(C)(C)c1cnc(NC(=O)N2CCCN(C(=O)C3CCC(O)CC3)CC2)s1 (stereo not shown) ?
17

So what does the record say about EC50 for CC(C)(C)c1ccc(NC(=O)N2CCCN(C(=O)CC3CCCCC3)CC2)cc1 ?
100

So what does the record say about EC50 for CC(C)CCC(=O)N1CCCN(C(=O)Nc2ccc3ccccc3c2)CC1 ?
89

So what does the record say about EC50 for O=C(Nc1nc2c(s1)CCCC2)N1CCCN(C(=O)c2ccc(Cl)cc2)CC1 ?
3.6

So what does the record say about EC50 for CC(C)c1ccc(NC(=O)N2CCCN(C(=O)CCC3CC3)CC2)cc1 ?
89

So what does the record say about EC50 for CC(C)(C)c1cc(NC(=O)N2CCCN(C(=O)C3CCCCC3)CC2)no1 ?
3.7

====

# SUBJECT_OF_TEST: human CB2R (Homo sapiens)
# Construct: host or cells: CHO cells
# EXPERIMENTAL_PROTOCOL: CB2R mediated modulation of cAMP synthesis
# Type: cell-based
# RECORDED_CONDITIONS: CHO, 0.5 h, read-out: Agonist Efficacy (%)
# Emax values compiled below
Give the value in % but do not write % after it.

Worked cases, Emax given:
So what does the record say about Emax for CC(C)(C)c1cc(NC(=O)N2CCCN(C(=O)C3CCC(F)(F)CC3)CC2)no1 [Compound 144] ?
98

So what does the record say about Emax for CC(C)(C)c1cc(NC(=O)N2CCCN(C(=O)CC3CCCC3)CC2)no1 [Compound 140] ?
103

So what does the record say about Emax for CC(C)(C)c1cc(NC(=O)N2CCCN(C(=O)N3CCC(F)(F)CC3)CC2)no1 [Compound 206] ?
105

So what does the record say about Emax for CC(C)c1ccc(NC(=O)N2CCCN(C(=O)CC(C)(C)C)CC2)cc1 [Compound 60] ?
71

***
So what does the record say about Emax for CC(C)(C)c1cc(NC(=O)N2CCCN(C(=O)NC3CCCC3)CC2)no1 [Compound 217] ?
100

So what does the record say about Emax for CCC(C)c1ccc(NC(=O)N2CCCN(C(=O)CC3CCCC3)CC2)cc1 (stereo not drawn) [Compound 52] ?
98

====

# SUBJECT_OF_TEST: human CB2R (Homo sapiens, UniProt P34972)
# Construct: host or cells: CHO cells
# EXPERIMENTAL_PROTOCOL: CB2R mediated modulation of cAMP synthesis
# Assay type: cell-based
# RECORDED_CONDITIONS: CHO, 0.5 h, read-out: Agonist Efficacy (%)
# Emax values compiled below
Give the value in % but do not write % after it.

Worked cases, Emax given:
So what Emax did CC(C)(C)c1cc(NC(=O)N2CCCN(C(=O)C3CCOCC3)CC2)no1 [Compound 142] get with human CB2R (Homo sapiens, UniProt P34972)?
110

So what Emax did CC(C)(C)c1cc(NC(=O)N2CCCN(C(=O)N3CCCCC3)CC2)no1 [Compound 198] get with human CB2R (Homo sapiens, UniProt P34972)?
99

So what Emax did O=C(Nc1nc(-c2ccccc2)cs1)N1CCCN(C(=O)C2CCC(O)CC2)CC1 (centres unmarked) [Compound 174] get with human CB2R (Homo sapiens, UniProt P34972)?
102

So what Emax did CCC(C)c1cc(NC(=O)N2CCCN(C(=O)C3CCOCC3)CC2)on1 (centres unmarked) [Compound 193] get with human CB2R (Homo sapiens, UniProt P34972)?
106

So what Emax did CC(C)(C)c1cc(NC(=O)N2CCCN(C(=O)NC3CCCCC3)CC2)no1 [Compound 212] get with human CB2R (Homo sapiens, UniProt P34972)?
102

So what Emax did CC(C)(C)c1cc(NC(=O)N2CCCN(C(=O)c3ccc(C(F)(F)F)cc3)CC2)no1 [Compound 154] get with human CB2R (Homo sapiens, UniProt P34972)?
103

***
So what Emax did COC1CCC(C(=O)N2CCCN(C(=O)Nc3cc(C(C)(C)C)on3)CC2)CC1 (centres unmarked) [Compound 155] get with human CB2R (Homo sapiens, UniProt P34972)?
101

So what Emax did CC(C)(C)c1cc(NC(=O)N2CCCN(C(=O)C3CCC(=O)CC3)CC2)no1 [Compound 234] get with human CB2R (Homo sapiens, UniProt P34972)?
100

====

# SUBJECT_OF_TEST: human CB2R (Homo sapiens, UniProt P34972)
# Construct: host or cells: CHO cells
# EXPERIMENTAL_PROTOCOL: CB2R mediated modulation of cAMP synthesis
# Assay type: cell-based
# RECORDED_CONDITIONS: read-out: hCB2 cAMP EC50
EC50 vs 20 nM: less than gives y; not less than gives n.

Hi there! Is EC50 for CCC(C)c1ccc(NC(=O)N2CCCN(C(=O)C3CCOCC3)CC2)cc1 (centres unmarked) below 20 nM, do you know?
y

Hi there! Is EC50 for CC(C)(C)c1cc(NC(=O)N2CCCN(C(=O)C3CCCCCC3)CC2)no1 below 20 nM, do you know?
y

Hi there! Is EC50 for CC(C)(C)c1cc(NC(=O)N2CCCN(C(=O)N3CCS(=O)(=O)CC3)CC2)on1 below 20 nM, do you know?
n

Hi there! Is EC50 for CC(C)c1ccc(NC(=O)N2CCCN(C(=O)CC3CCCCC3)CC2)cc1 below 20 nM, do you know?
n

Hi there! Is EC50 for Cc1sc(NC(=O)N2CCCN(C(=O)C3CCOCC3)CC2)nc1C(C)(C)C below 20 nM, do you know?
n

Hi there! Is EC50 for CC(C)c1ccc(NC(=O)N2CCCN(C(=O)c3ccc(Cl)cc3)CC2)cc1 below 20 nM, do you know?
n

***
Hi there! Is EC50 for O=C(Nc1ccc2ccccc2c1)N1CCCN(C(=O)c2ccc(C(F)(F)F)cc2)CC1 below 20 nM, do you know?
y

====

# Emax values compiled below
# SUBJECT_OF_TEST: human CB2R (Homo sapiens)
# Construct: host or cells: CHO cells
# EXPERIMENTAL_PROTOCOL: CB2R mediated modulation of cAMP synthesis
# Assay type: cell-based
# RECORDED_CONDITIONS: 0.5 h; CHO cells expressing human CB2R; cAMP inhibited by 1 uM CP55940 defined as 100%; read-out: Agonist Efficacy (%)
Mention the unit after the number when you answer.

Worked cases, Emax given:
So what does the record say about Emax for CC(C)(C)c1ccc(NC(=O)N2CCCN(C(=O)CC3CCCCC3)CC2)cc1 ?
94%

So what does the record say about Emax for O=C(Nc1ccc2ccccc2c1)N1CCCN(C(=O)C2CCCCC2)CC1 ?
99%

So what does the record say about Emax for CC(C)(C)c1ccc(NC(=O)N2CCCN(C(=O)c3ccc(C#N)cc3)CC2)cc1 ?
109%

So what does the record say about Emax for CC(C)(C)c1cnc(NC(=O)N2CCCN(C(=O)N3CCS(=O)(=O)CC3)CC2)s1 ?
95%

***
So what does the record say about Emax for CC(C)c1ccc(NC(=O)N2CCCN(C(=O)CCC3CC3)CC2)cc1 ?
105%

So what does the record say about Emax for O=C(Nc1ccc(SC(F)(F)F)cc1)N1CCCN(C(=O)C2CCCCC2)CC1 ?
99%

So what does the record say about Emax for CC(C)(C)c1cc(NC(=O)N2CCCN(C(=O)CN3CCC(F)(F)CC3)CC2)no1 ?
104%

So what does the record say about Emax for O=C(Nc1nc(C2CC2)cs1)N1CCCN(C(=O)c2ccc(Cl)cc2)CC1 ?
91%
